Where these numbers come from: PubChem BioAssay

system.tested: Follistatin (Homo sapiens)
assay.overview: follistatin binders on small-molecule microarrays, primary screen, biochemical, small-molecule microarray, 635/667 nm fluorescence (AID 1132)
run.conditions: FST binding, 635 nm fluorescence, higher = more signal
Give measured composite z-score for each item. Keep answers brief.
I only need the number, thanks.

Give the measured composite z-score of CN(C)c1ccc(C(O)C2C=CC3C(=O)N(c4ccccc4)C(=O)C3N2Nc2ccc([N+](=O)[O-])cc2)cc1 (stereo unspecified) . 1.01

What about this compound? COC(=O)CCCCCCC(=O)Nc1ccc(NC(=O)CCCC[P+](c2ccccc2)(c2ccccc2)c2ccccc2)cc1 1.01

What about this compound? C=C(COC)C(=O)CC[C@@H](OC(=O)c1cccnc1)c1ccc(OCCO)cc1 1.4

What about this compound? C=C(C)[C@@H]1CC=C(C(O)C2C=CC3C(=O)N(c4ccccc4)C(=O)C3N2Nc2ccccc2F)CC1 (stereo partly specified) 1.11

What about this compound? [N-]=[N+]=Nc1ccccc1[C@@H]1OC(c2ccc(OCCCO)cc2)=N[C@]1(Cc1ccccc1)C(=O)NCC(O)CO (stereo partly specified) 1.4

What about this compound? CCOC(=O)c1ccc(NC(=O)O[C@H]2[C@H](OC(=O)Nc3ccc4c(c3)OCO4)[C@@H](OC(=O)Nc3ccc4c(c3)OCO4)[C@@H](OC)O[C@@H]2CO)cc1 1.26
